- condition: buffer; pH 7.4; 200.0 µM
measured_endpoint: solubility kinetic

compound | assay_result
Cc1ccc(NC(=O)C(=O)NCCc2c[nH]c3ccccc23)cc1C | < 0.2 µg/mL
Cn1nc(C(=O)NC2CCC(O)CC2)c2ccccc2c1=O (configuration not stated) | > 45.2 µg/mL
C=CCNC(=O)C(=O)Nc1cc2c3c(c1)CCC(=O)N3CCC2 | > 47 µg/mL
Cc1c(C(=O)N/N=C/c2ccoc2)cccc1[N+](=O)[O-] | > 41 µg/mL

Here are 3 compounds. What values of solubility kinetic were reported for them?
1. CC1CCN(C(=O)COC(=O)c2cc3ccccc3oc2=O)CC1
2. Cc1c(C=O)c2ccccc2n1CCOc1ccccc1F
3. CC(C)C(NS(=O)(=O)c1ccccc1)C(=O)NC1CCCC1 (configuration not stated)

> 49.4 µg/mL
< 0.6 µg/mL
> 48.7 µg/mL
